# EXPERIMENTAL DETAILS: Plasma clearance in rat at 1 mg/kg, iv
# Assay type: ADME, organism-based
# Design: dose 1 mg/kg, route intravenous
MEASURED PROPERTY: clearance (mL/min/kg)
Supply the numeric figure in mL/min/kg, leaving out any unit text.

Input: Check the records and state clearance for `CCOc1cc(N2CCC(O)CC2)ccc1Nc1ncc2c(n1)N(C)c1ccccc1C(=O)N2C`
Output: 25.5

----------
# SUBJECT OF TEST: Mitogen-activated protein kinase 7 (Homo sapiens, UniProt Q13164)
# Sequence (Q13164 whole entry): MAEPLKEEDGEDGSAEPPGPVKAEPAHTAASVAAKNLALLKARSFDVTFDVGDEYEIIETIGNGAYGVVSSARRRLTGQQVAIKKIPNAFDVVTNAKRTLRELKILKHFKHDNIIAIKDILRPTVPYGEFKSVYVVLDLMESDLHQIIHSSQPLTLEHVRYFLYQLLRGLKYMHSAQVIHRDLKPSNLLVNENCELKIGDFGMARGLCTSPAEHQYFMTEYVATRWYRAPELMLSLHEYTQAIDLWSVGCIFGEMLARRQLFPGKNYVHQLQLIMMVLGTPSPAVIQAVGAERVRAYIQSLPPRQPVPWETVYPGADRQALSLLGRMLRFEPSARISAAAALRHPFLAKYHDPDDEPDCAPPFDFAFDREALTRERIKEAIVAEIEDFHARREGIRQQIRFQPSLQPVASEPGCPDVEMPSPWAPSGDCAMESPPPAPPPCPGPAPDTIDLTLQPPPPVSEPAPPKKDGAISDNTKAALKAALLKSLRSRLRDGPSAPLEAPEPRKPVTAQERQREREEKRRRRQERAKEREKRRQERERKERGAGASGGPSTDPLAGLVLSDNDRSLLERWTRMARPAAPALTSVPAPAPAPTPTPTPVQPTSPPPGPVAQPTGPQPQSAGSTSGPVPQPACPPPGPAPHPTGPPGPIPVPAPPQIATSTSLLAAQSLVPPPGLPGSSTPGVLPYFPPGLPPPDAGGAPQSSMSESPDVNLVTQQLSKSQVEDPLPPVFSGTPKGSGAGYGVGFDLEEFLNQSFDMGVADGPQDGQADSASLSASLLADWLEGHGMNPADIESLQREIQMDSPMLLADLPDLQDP
# EXPERIMENTAL DETAILS: Inhibition of EGF-induced BMK1 autophosphorylation in human HeLa cells by SDS-PAGE analysis
# Assay type: cell-based
Rule for this label: True means IC50 is less than 300 nM; False means IC50 is at least 300 nM.

Input: # TODO verify IC50 < 300 nM strictly for this compound: `COc1cc(N2CCN(C)CC2)ccc1Nc1ncc2c(n1)N(C(C)C)c1ccccc1C(=O)N2C`
Output: True

Input: # TODO verify IC50 < 300 nM strictly for this compound: `CCN1c2ccccc2C(=O)N(C)c2cnc(Nc3ccc(N4CCN(C)CC4)cc3OC)nc21`
Output: True

Input: # TODO verify IC50 < 300 nM strictly for this compound: `COc1cc(C(=O)N2CCC(N3CCCC3)CC2)ccc1Nc1ncc2c(n1)N(C)c1ccccc1C(=O)N2C`
Output: True

Input: # TODO verify IC50 < 300 nM strictly for this compound: `COc1cc(N2CCC(O)CC2)ccc1Nc1ncc2c(n1)N(C)c1ccccc1C(=O)N2C`
Output: True

Input: # TODO verify IC50 < 300 nM strictly for this compound: `COc1cc(N2CCN(C)CC2)ccc1Nc1ncc2c(n1)N(C)c1ccc(C)cc1C(=O)N2C`
Output: False

Input: # TODO verify IC50 < 300 nM strictly for this compound: `COc1cc(C(=O)NC2CCN(C)CC2)ccc1Nc1ncc2c(n1)N(C)c1ccccc1C(=O)N2C`
Output: False

Input: # TODO verify IC50 < 300 nM strictly for this compound: `Cc1cc(N2CCN(C)CC2)ccc1Nc1ncc2c(n1)N(C)c1ccccc1C(=O)N2C`
Output: True

Input: # TODO verify IC50 < 300 nM strictly for this compound: `COc1cc(N2CCOCC2)ccc1Nc1ncc2c(n1)N(C)c1ccccc1C(=O)N2C`
Output: True

Input: # TODO verify IC50 < 300 nM strictly for this compound: `COc1cc(N2CCNCC2)ccc1Nc1ncc2c(n1)N(C)c1ccccc1C(=O)N2C`
Output: True

----------
# EXPERIMENTAL DETAILS: Oral bioavailability in rat at 2 mg/kg
# Assay type: ADME, organism-based
# TEST CONTEXT: in vivo
MEASURED PROPERTY: bioavailability (%)
Supply the numeric figure in %, leaving out any unit text.

Input: Check the records and state bioavailability for `CCOc1cc(N2CCC(O)CC2)ccc1Nc1ncc2c(n1)N(C)c1ccccc1C(=O)N2C`
Output: 68.6

----------
# EXPERIMENTAL DETAILS: Volume of distribution at steady state in mouse at 1 mg/kg, iv
# Type: ADME, organism-based
# Set-up: dose 1 mg/kg, route intravenous
# TEST CONTEXT: in vivo, read-out: Vdss
MEASURED PROPERTY: Vd (L/kg)
Supply the numeric figure in L/kg, leaving out any unit text.

Input: Check the records and state Vd for `COc1cc(C(=O)N2CCC(N3CCCC3)CC2)ccc1Nc1ncc2c(n1)N(C)c1ccccc1C(=O)N2C`
Output: 5.36

----------
# EXPERIMENTAL DETAILS: Volume of distribution at steady state in rat at 1 mg/kg, iv
# Type: ADME, organism-based
# Parameters: dose 1 mg/kg, route intravenous
# TEST CONTEXT: in vivo, read-out: Vdss
MEASURED PROPERTY: Vd (L/kg)
Supply the numeric figure in L/kg, leaving out any unit text.

Input: Check the records and state Vd for `CCOc1cc(N2CCC(O)CC2)ccc1Nc1ncc2c(n1)N(C)c1ccccc1C(=O)N2C`
Output: 3.4

----------
# SUBJECT OF TEST: Serine/threonine-protein kinase DCLK1 (Homo sapiens, UniProt O15075)
# Sequence (O15075 whole entry): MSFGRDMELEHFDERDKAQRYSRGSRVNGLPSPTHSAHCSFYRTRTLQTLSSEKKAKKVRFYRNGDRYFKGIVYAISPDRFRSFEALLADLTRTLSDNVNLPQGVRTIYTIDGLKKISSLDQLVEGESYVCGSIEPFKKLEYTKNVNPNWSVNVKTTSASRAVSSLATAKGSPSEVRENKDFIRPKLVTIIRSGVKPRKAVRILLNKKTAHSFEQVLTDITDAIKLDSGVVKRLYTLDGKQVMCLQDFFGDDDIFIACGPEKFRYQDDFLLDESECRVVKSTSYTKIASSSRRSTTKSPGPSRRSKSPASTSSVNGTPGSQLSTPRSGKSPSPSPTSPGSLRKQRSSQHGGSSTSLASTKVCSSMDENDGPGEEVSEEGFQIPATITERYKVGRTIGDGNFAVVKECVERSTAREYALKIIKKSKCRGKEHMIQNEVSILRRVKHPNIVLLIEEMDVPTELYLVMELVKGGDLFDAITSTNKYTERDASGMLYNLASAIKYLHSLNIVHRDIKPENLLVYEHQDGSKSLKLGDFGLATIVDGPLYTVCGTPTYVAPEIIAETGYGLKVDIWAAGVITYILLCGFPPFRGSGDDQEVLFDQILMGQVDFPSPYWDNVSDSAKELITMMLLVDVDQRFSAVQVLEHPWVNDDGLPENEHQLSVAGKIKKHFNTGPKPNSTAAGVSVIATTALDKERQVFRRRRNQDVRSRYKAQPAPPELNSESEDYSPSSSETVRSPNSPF
MEASURED PROPERTY: Kd
Note: a bare number is incomplete; add the unit.

Input: Check the records and state Kd for `COc1cc(N2CCN(C)CC2)ccc1Nc1ncc2c(n1)N(C)c1ccccc1C(=O)N2C`
Output: 1.2 nM

----------
# EXPERIMENTAL DETAILS: Tmax in rat at 1 mg/kg, iv
# Format: ADME, organism-based
# Set-up: dose 1 mg/kg, route intravenous
# TEST CONTEXT: in vivo
MEASURED PROPERTY: Tmax (min)
Supply the numeric figure in min, leaving out any unit text.

Input: Check the records and state Tmax for `CCOc1cc(N2CCC(O)CC2)ccc1Nc1ncc2c(n1)N(C)c1ccccc1C(=O)N2C`
Output: 4.8

----------
# EXPERIMENTAL DETAILS: AUC (0 to infinity) in rat at 1 mg/kg, iv
# Type: ADME, organism-based
# Set-up: time infinity, dose 1 mg/kg, route intravenous
# TEST CONTEXT: plasma
MEASURED PROPERTY: AUC(0-inf) (ng·h/mL)
Supply the numeric figure in ng·h/mL, leaving out any unit text.

Input: Check the records and state AUC(0-inf) for `CCOc1cc(N2CCC(O)CC2)ccc1Nc1ncc2c(n1)N(C)c1ccccc1C(=O)N2C`
Output: 658

----------
# EXPERIMENTAL DETAILS: Cmax in rat at 2 mg/kg, po
# Format: ADME, organism-based
# Design: dose 2 mg/kg, route oral
# TEST CONTEXT: in vivo
MEASURED PROPERTY: Cmax (ng/mL)
Supply the numeric figure in ng/mL, leaving out any unit text.

Input: Check the records and state Cmax for `CCOc1cc(N2CCC(O)CC2)ccc1Nc1ncc2c(n1)N(C)c1ccccc1C(=O)N2C`
Output: 247

----------
# SUBJECT OF TEST: Serine/threonine-protein kinase DCLK2 (Homo sapiens)
# Sequence (Q8N568 whole entry): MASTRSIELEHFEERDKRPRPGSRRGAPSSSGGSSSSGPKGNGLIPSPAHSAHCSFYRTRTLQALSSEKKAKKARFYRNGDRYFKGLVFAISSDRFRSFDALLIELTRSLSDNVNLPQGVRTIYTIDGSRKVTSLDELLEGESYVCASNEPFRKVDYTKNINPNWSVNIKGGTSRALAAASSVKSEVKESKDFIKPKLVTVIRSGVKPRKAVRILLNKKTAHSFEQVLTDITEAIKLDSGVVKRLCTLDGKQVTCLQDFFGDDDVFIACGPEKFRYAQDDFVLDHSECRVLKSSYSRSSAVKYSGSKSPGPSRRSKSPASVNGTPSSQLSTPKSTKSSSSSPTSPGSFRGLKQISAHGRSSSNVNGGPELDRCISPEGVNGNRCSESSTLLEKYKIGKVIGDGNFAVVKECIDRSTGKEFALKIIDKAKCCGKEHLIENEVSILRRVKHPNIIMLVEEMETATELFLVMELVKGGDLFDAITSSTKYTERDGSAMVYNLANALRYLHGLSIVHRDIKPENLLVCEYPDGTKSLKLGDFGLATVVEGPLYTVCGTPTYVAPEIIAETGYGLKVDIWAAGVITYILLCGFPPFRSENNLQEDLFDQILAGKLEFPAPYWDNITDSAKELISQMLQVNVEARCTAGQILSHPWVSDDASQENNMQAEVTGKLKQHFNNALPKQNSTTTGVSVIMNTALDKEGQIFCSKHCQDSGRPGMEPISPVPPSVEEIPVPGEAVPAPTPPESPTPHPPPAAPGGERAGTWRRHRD
MEASURED PROPERTY: Kd (µM)
Supply the numeric figure in µM, leaving out any unit text.

Input: Check the records and state Kd for `COc1cc(N2CCN(C)CC2)ccc1Nc1ncc2c(n1)N(C)c1ccccc1C(=O)N2C`
Output: 0.01
